protocol: Metabolic stability in human hepatic microsome
Type: in vitro ADME
experimental_parameters: microsomes, pH 7.4; human hepatic microsome, NADPH(+); read-out: CL NADPH(+)
Starred links: 1 amine or outer side, 2 acyl side, 3 side chain; linkers in the order of their positions; H or OH if unused. Positions of bridges follow the written chain, without caps; N, C: chain ends. Non-standard residues stand in square brackets, D forms with d. Residues, ends and D or L forms follow the SMILES beside them. *: point of attachment. Ala(4-thiazolyl) = N[C@@H](Cc1cscn1)C(=O)O; NMeF = CN[C@@H](Cc1ccccc1)C(=O)O; NMeI = CC[C@H](C)[C@H](NC)C(=O)O; NMeβAla = CN(CCC(=O)[*:2])[*:1]; NMeL = CN[C@@H](CC(C)C)C(=O)O; NMeV = CN[C@H](C(=O)O)C(C)C; NMeA = CN[C@@H](C)C(=O)O; Piperidide = C1CCN(*)CC1; dNMeA = CN[C@H](C)C(=O)O; Sar = CNCC(=O)O; tBu = CC(C)(C)*
Listed here are molecules together with their documented microsomal CLint at 1 uM.
The response must be a number in µL/min/mg with no trailing unit.

>  <molecule>
CC[C@H](C)[C@H]1C(=O)N[C@H](C(=O)N2CCCCC2)CC(=O)N(C)CCC(=O)N[C@@H](Cc2ccccc2)C(=O)N(C)[C@@H](CC(C)C)C(=O)N[C@@H](COC(C)(C)C)C(=O)NCC(=O)N2CCC[C@H]2C(=O)N[C@@H]([C@@H](C)O)C(=O)N[C@@H](CC(C)C)C(=O)N(C)[C@@H](C)C(=O)N[C@@H](Cc2ccccc2)C(=O)N1C [DP-222] ([NMeβAla]F[NMeL]S(tBu)GPTL[NMeA]F[NMeI]D-Piperidide; lactam N-12)

>  <measurement_unit>
µL/min/mg

>  <microsomal CLint at 1 uM>
30

$$$$
>  <molecule>
CC(C)C[C@H]1C(=O)N(C)[C@@H](C)C(=O)N[C@H](C(=O)N(C)[C@@H](Cc2ccccc2)C(=O)N[C@@H](C)C(=O)N2CCCCC2)CC(=O)N(C)[C@@H](C)C(=O)N(C)[C@@H](C)C(=O)N(C)[C@@H](Cc2ccccc2)C(=O)N[C@@H]([C@@H](C)O)C(=O)N(C)[C@@H](C)C(=O)N(C)[C@@H](Cc2ccccc2)C(=O)N[C@@H](C)C(=O)N1C [DP-377] ([NMeA][NMeA][NMeF]T[NMeA][NMeF]A[NMeL][NMeA]D[NMeF]A-Piperidide; lactam N-10)

>  <measurement_unit>
µL/min/mg

>  <microsomal CLint at 1 uM>
70

$$$$
>  <molecule>
CC(C)C[C@@H]1NC(=O)[C@H](CC(C)C)N(C)C(=O)[C@H](C)N(C)C(=O)[C@H]([C@@H](C)O)NC(=O)[C@H](Cc2ccccc2)N(C)C(=O)[C@@H](C)NC(=O)C[C@@H](C(=O)N2CCCCC2)NC1=O [DP-741] ([dA][NMeF]T[NMeA][NMeL]LD-Piperidide; lactam N-7)

>  <measurement_unit>
µL/min/mg

>  <microsomal CLint at 1 uM>
169

$$$$
>  <molecule>
CC(C)C[C@@H]1NC(=O)[C@H](CC(C)C)N(C)C(=O)[C@H](C)N(C)C(=O)[C@@H](C(C)C)NC(=O)C[C@@H](C(=O)N2CCCCC2)NC(=O)[C@H]([C@@H](C)O)NC(=O)[C@H](Cc2ccccc2)N(C)C(=O)[C@H](C)N(C)C(=O)[C@H](CC(C)C)N(C)C(=O)[C@H](Cc2cscn2)NC(=O)[C@H](Cc2ccccc2)N(C)C1=O [DP-625] ([dV][NMeA][NMeL]L[NMeF][Ala(4-thiazolyl)][NMeL][NMeA][NMeF]TD-Piperidide; lactam N-11)

>  <measurement_unit>
µL/min/mg

>  <microsomal CLint at 1 uM>
27

$$$$
>  <molecule>
CC[C@H](C)[C@@H]1NC(=O)[C@H](C)N(C)C(=O)[C@H](Cc2ccccc2)NC(=O)[C@H](Cc2ccccc2)NC(=O)[C@H](CC(C)C)NC(=O)[C@H](C(C)C)N(C)C(=O)[C@H](CC(C)C)NC(=O)[C@H](C)NC(=O)[C@H](C)NC(=O)C[C@@H](C(=O)N2CCCCC2)NC(=O)CNC(=O)[C@H]([C@@H](C)O)NC1=O [DP-84] (AAL[NMeV]LFF[NMeA]ITGD-Piperidide; lactam N-12)

>  <measurement_unit>
µL/min/mg

>  <microsomal CLint at 1 uM>
21

$$$$
>  <molecule>
CC[C@H](C)[C@@H]1NC(=O)[C@H](CC(C)C)N(C)C(=O)CN(C)C(=O)[C@H]([C@@H](C)O)NC(=O)[C@H](C)N(C)C(=O)C[C@@H](C(=O)N(C)[C@@H](Cc2ccccc2)C(=O)N(C)[C@@H](C)C(=O)N[C@H](C(=O)N[C@@H](C)C(=O)N2CCCCC2)C(C)C)NC(=O)[C@H](CC(C)C)N(C)C(=O)[C@H](Cc2ccccc2)N(C)C(=O)[C@H](CC(C)C)N(C)C1=O [DP-660] ([NMeA]T[Sar][NMeL]I[NMeL][NMeF][NMeL]D[NMeF][NMeA]VA-Piperidide; lactam N-9)

>  <measurement_unit>
µL/min/mg

>  <microsomal CLint at 1 uM>
222

$$$$
>  <molecule>
CC[C@H](C)[C@@H]1NC(=O)[C@H](Cc2ccccc2)NC(=O)[C@H](CC(C)C)NC(=O)[C@@H](C)NC(=O)C[C@@H](C(=O)N2CCCCC2)NC(=O)[C@H](Cc2ccccc2)NC(=O)[C@H](CC(C)C)NC(=O)[C@H]([C@@H](C)O)NC(=O)[C@H](Cc2ccccc2)NC(=O)[C@H](CC(C)C)NC1=O [DP-515] ([dA]LFILFTLFD-Piperidide; lactam N-10)

>  <measurement_unit>
µL/min/mg

>  <microsomal CLint at 1 uM>
23

$$$$
>  <molecule>
CC[C@H](C)[C@@H]1NC(=O)[C@H](CC(C)C)NC(=O)[C@H](Cc2ccccc2)NC(=O)CN(C)C(=O)[C@H](CC(C)C)NC(=O)[C@H](Cc2ccccc2)NC(=O)[C@@H](C)NC(=O)C[C@@H](C(=O)N2CCCCC2)NC(=O)[C@H]([C@@H](C)O)NC(=O)[C@H](Cc2ccccc2)NC1=O [DP-430] ([dA]FL[Sar]FLIFTD-Piperidide; lactam N-10)

>  <measurement_unit>
µL/min/mg

>  <microsomal CLint at 1 uM>
96

$$$$

get_value(item= C=C1CCC(=O)N[C@@H](CC(C)C)C(=O)N(C)[C@@H]([C@@H](C)CC)C(=O)N(C)[C@@H](CC(C)C)C(=O)NCC(=O)N(C)[C@@H](C)C(=O)N[C@@H](Cc2ccccc2)C(=O)N[C@@H]([C@@H](C)O)C(=O)N(C)[C@@H](CC(C)C)C(=O)N[C@@H](Cc2ccccc2)C(=O)N(C)[C@@H](C(C)C)C(=O)N[C@H](C(=O)N2CCCCC2)Cc2cccc1c2 [DP-882] , readout=microsomal CLint at 1 uM) returns 32

The molecule identified as CC(C)C[C@H]1C(=O)N(C)[C@@H](C)C(=O)N[C@H](C(=O)N(C)[C@@H](Cc2ccccc2)C(=O)N[C@@H](C)C(=O)N2CCCCC2)CC(=O)N(C)[C@H](C)C(=O)N(C)[C@@H](C)C(=O)N[C@@H](C)C(=O)N(C)[C@@H](Cc2ccccc2)C(=O)N(C)[C@@H](C)C(=O)N(C)[C@@H](Cc2ccccc2)C(=O)N[C@@H]([C@@H](C)O)C(=O)N(C)[C@@H](C)C(=O)N1C [DP-443] ([dNMeA][NMeA]A[NMeF][NMeA][NMeF]T[NMeA][NMeL][NMeA]D[NMeF]A-Piperidide; lactam N-11) registered its microsomal CLint at 1 uM at 17
